Molecular target: feline FcRn complex (FcRn-α subunit and β-microglobulin) (feline)
Assay: SPR (Biacore), FcRn on SA chip, pH 6
property.label: Kd (nM)
Please give a number only; it is taken to be in nM.

Solved entries:
| binder | Kd [nM] |
| --- | --- |
| feline IgG1a mutant ID No. 343: S252Y, S428M, S434F, D399M (antibody, part only; not given: Variable domains, not shown: another chain or arm of the molecule; small tags and cut ends) constant: ASTTAPSVFPLAPSCGTTSGATVALACLVLGYFPEPVTVSWNSGALTSGVHTFPAVLQASGLYSLSSMVTVPSSRWLSDTFTCNVAHPPSNTKVDKTVRKTDHPPGPKPCDCPKCPPPEMLGGPSIFIFPPKPKDTLYISRTPEVTCLVVDLGPDDSDVQITWFVDNTQVYTAKTSPREEQFNSTYRVVSVLPILHQDWLKGKEFKCKVNSKSLPSPIERTISKAKGQPHEPQVYVLPPAQEELSRNKVSVTCLIKSFHPPDIAVEWEITGQPEPENNYRTTPPQLMSDGTYFVYSKLSVDRSHWQRGNTYTCSVMHEALHFHHTQKSLTQSPGK | 0.041 |
| feline IgG1a mutant ID No. 294: S252Y, S428Y, Q311W, L314K (antibody, part only; not given: variable domains and light chain, not shown: another chain or arm of the molecule; small tags and cut ends) constant: ASTTAPSVFPLAPSCGTTSGATVALACLVLGYFPEPVTVSWNSGALTSGVHTFPAVLQASGLYSLSSMVTVPSSRWLSDTFTCNVAHPPSNTKVDKTVRKTDHPPGPKPCDCPKCPPPEMLGGPSIFIFPPKPKDTLYISRTPEVTCLVVDLGPDDSDVQITWFVDNTQVYTAKTSPREEQFNSTYRVVSVLPILHWDWKKGKEFKCKVNSKSLPSPIERTISKAKGQPHEPQVYVLPPAQEELSRNKVSVTCLIKSFHPPDIAVEWEITGQPEPENNYRTTPPQLDSDGTYFVYSKLSVDRSHWQRGNTYTCSVYHEALHSHHTQKSLTQSPGK | 0.692 |
| feline IgG1a mutant ID No. 282: S252Y, Q311W, D312P, L314K (antibody, part only; not given: Variable domains, not shown: another chain or arm of the molecule) constant: ASTTAPSVFPLAPSCGTTSGATVALACLVLGYFPEPVTVSWNSGALTSGVHTFPAVLQASGLYSLSSMVTVPSSRWLSDTFTCNVAHPPSNTKVDKTVRKTDHPPGPKPCDCPKCPPPEMLGGPSIFIFPPKPKDTLYISRTPEVTCLVVDLGPDDSDVQITWFVDNTQVYTAKTSPREEQFNSTYRVVSVLPILHWPWKKGKEFKCKVNSKSLPSPIERTISKAKGQPHEPQVYVLPPAQEELSRNKVSVTCLIKSFHPPDIAVEWEITGQPEPENNYRTTPPQLDSDGTYFVYSKLSVDRSHWQRGNTYTCSVSHEALHSHHTQKSLTQSPGK | 30 |
| feline IgG1a mutant ID No. 341: S252Y, S428M, S434F, D312A (antibody, part only; not given: Variable domains, not shown: another chain or arm of the molecule; small tags and cut ends) constant: ASTTAPSVFPLAPSCGTTSGATVALACLVLGYFPEPVTVSWNSGALTSGVHTFPAVLQASGLYSLSSMVTVPSSRWLSDTFTCNVAHPPSNTKVDKTVRKTDHPPGPKPCDCPKCPPPEMLGGPSIFIFPPKPKDTLYISRTPEVTCLVVDLGPDDSDVQITWFVDNTQVYTAKTSPREEQFNSTYRVVSVLPILHQAWLKGKEFKCKVNSKSLPSPIERTISKAKGQPHEPQVYVLPPAQEELSRNKVSVTCLIKSFHPPDIAVEWEITGQPEPENNYRTTPPQLDSDGTYFVYSKLSVDRSHWQRGNTYTCSVMHEALHFHHTQKSLTQSPGK | 0.0353 |
| feline IgG1a mutant ID No. 329: S428Y, D312P, S434Y, Q311H, L314K (antibody, part only; not given: Variable domains, not shown: another chain or arm of the molecule; small tags and cut ends) constant: ASTTAPSVFPLAPSCGTTSGATVALACLVLGYFPEPVTVSWNSGALTSGVHTFPAVLQASGLYSLSSMVTVPSSRWLSDTFTCNVAHPPSNTKVDKTVRKTDHPPGPKPCDCPKCPPPEMLGGPSIFIFPPKPKDTLSISRTPEVTCLVVDLGPDDSDVQITWFVDNTQVYTAKTSPREEQFNSTYRVVSVLPILHHPWKKGKEFKCKVNSKSLPSPIERTISKAKGQPHEPQVYVLPPAQEELSRNKVSVTCLIKSFHPPDIAVEWEITGQPEPENNYRTTPPQLDSDGTYFVYSKLSVDRSHWQRGNTYTCSVYHEALHYHHTQKSLTQSPGK | 0.338 |

I would be grateful if you could share the reported Kd for feline IgG1a mutant ID No. 277: S252R, S434W (antibody, part only; not given: Variable domains, not shown: another chain or arm of the molecule) constant: ASTTAPSVFPLAPSCGTTSGATVALACLVLGYFPEPVTVSWNSGALTSGVHTFPAVLQASGLYSLSSMVTVPSSRWLSDTFTCNVAHPPSNTKVDKTVRKTDHPPGPKPCDCPKCPPPEMLGGPSIFIFPPKPKDTLRISRTPEVTCLVVDLGPDDSDVQITWFVDNTQVYTAKTSPREEQFNSTYRVVSVLPILHQDWLKGKEFKCKVNSKSLPSPIERTISKAKGQPHEPQVYVLPPAQEELSRNKVSVTCLIKSFHPPDIAVEWEITGQPEPENNYRTTPPQLDSDGTYFVYSKLSVDRSHWQRGNTYTCSVSHEALHWHHTQKSLTQSPGK .
7.1

Which Kd value is on record for feline IgG1a mutant ID No. 276: S252R, S434R, Q311W (antibody, part only; not given: variable domains and light chain, not shown: another chain or arm of the molecule) constant: ASTTAPSVFPLAPSCGTTSGATVALACLVLGYFPEPVTVSWNSGALTSGVHTFPAVLQASGLYSLSSMVTVPSSRWLSDTFTCNVAHPPSNTKVDKTVRKTDHPPGPKPCDCPKCPPPEMLGGPSIFIFPPKPKDTLRISRTPEVTCLVVDLGPDDSDVQITWFVDNTQVYTAKTSPREEQFNSTYRVVSVLPILHWDWLKGKEFKCKVNSKSLPSPIERTISKAKGQPHEPQVYVLPPAQEELSRNKVSVTCLIKSFHPPDIAVEWEITGQPEPENNYRTTPPQLDSDGTYFVYSKLSVDRSHWQRGNTYTCSVSHEALHRHHTQKSLTQSPGK ?
28.7

Give the measured Kd of feline IgG1a mutant ID No. 319: S428Y, D312P, A431K, S434P (antibody, part only; not given: variable domains, not shown: another chain or arm of the molecule) constant: ASTTAPSVFPLAPSCGTTSGATVALACLVLGYFPEPVTVSWNSGALTSGVHTFPAVLQASGLYSLSSMVTVPSSRWLSDTFTCNVAHPPSNTKVDKTVRKTDHPPGPKPCDCPKCPPPEMLGGPSIFIFPPKPKDTLSISRTPEVTCLVVDLGPDDSDVQITWFVDNTQVYTAKTSPREEQFNSTYRVVSVLPILHQPWLKGKEFKCKVNSKSLPSPIERTISKAKGQPHEPQVYVLPPAQEELSRNKVSVTCLIKSFHPPDIAVEWEITGQPEPENNYRTTPPQLDSDGTYFVYSKLSVDRSHWQRGNTYTCSVYHEKLHPHHTQKSLTQSPGK .
6.96
